Value source: paper PMC12723384

# target: D-alanine aminotransferase (Dat-S180F) (Staphylococcus aureus, UniProt A0A0H2XHU6, S180F)
# Construct: recombinant HIS-tagged Dat-S180F from BCDA1, expressed from pET28b in E. coli
# assay_info: lactate dehydrogenase-coupled assay of pyruvate production from D-alanine, A340
readout: pIC50
For clarity, pIC50 is expressed as the negative log10 of concentration in mol/L.

Reported pIC50 ( N[C@H](CCl)C(=O)O [BCDA, β-chloro-D-alanine] ) = 4.47
